tgt: Human HER3, endogenous, on human cancer cell lines (SK-Br-3, MCF7, BT-474) (human, UniProt P21860 20-1342)
Sequence (P21860 20-1342): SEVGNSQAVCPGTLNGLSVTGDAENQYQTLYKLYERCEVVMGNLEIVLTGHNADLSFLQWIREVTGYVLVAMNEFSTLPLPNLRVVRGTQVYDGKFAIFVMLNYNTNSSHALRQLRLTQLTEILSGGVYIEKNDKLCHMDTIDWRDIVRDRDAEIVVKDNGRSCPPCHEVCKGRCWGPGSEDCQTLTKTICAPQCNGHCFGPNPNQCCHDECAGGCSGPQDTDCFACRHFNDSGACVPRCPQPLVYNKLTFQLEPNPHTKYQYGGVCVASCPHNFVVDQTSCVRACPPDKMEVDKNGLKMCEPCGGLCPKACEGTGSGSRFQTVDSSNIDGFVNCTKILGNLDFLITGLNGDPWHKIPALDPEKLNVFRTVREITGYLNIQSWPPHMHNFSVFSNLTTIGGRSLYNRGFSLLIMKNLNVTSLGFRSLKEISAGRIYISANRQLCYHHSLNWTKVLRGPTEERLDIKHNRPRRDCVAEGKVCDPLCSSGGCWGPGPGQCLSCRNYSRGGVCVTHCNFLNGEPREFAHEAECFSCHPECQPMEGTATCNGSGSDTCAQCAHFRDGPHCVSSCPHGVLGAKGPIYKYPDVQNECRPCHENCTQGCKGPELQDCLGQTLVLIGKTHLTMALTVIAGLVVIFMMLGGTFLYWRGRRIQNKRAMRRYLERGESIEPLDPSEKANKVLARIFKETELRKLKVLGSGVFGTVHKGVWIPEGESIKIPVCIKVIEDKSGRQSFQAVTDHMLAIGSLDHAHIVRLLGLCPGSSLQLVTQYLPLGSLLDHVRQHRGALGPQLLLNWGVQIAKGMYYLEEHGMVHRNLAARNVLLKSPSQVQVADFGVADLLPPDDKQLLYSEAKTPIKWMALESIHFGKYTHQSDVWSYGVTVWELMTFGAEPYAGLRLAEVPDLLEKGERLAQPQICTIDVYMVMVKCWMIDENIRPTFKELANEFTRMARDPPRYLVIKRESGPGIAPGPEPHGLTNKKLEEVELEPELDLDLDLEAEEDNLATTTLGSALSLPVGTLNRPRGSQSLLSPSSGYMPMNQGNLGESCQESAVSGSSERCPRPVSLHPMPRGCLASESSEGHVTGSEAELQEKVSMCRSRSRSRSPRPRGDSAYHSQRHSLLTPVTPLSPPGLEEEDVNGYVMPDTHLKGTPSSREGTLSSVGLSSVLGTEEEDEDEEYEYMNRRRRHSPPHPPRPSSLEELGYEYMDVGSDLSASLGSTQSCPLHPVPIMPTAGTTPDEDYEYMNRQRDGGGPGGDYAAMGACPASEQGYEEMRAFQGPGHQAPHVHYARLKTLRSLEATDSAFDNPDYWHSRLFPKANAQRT
protocol_text: cell-based or functional assay
parameter: BT474 pHER3 IC50 (pM)
Output spec: scalar in pM, unitless text.

Reference set, count: 3
1) MOR13755 (antibody, human IgG1, kappa, V domains shown, tested as IgG) VH: QVQLVQSGAEVKKPGESLKISCKGSGYSFTTYWVAWVRQMPGKGLEWMGIIYPGQSDTIYSPSFQGQVTISADKSISTAYLQWSSLKASDTAMYYCARVHIIQPPSAWSYNAMDVWGQGTLVTVSS VL: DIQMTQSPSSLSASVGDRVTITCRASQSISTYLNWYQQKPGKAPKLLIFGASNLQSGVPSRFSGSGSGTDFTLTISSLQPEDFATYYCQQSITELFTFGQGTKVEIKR    657
2) MOR13752 (antibody, human IgG1, kappa, V domains shown, tested as IgG) VH: QVQLVQSGAEVKKPGESLKISCKGSGYSFTNYWVAWVRQMPGKGLEWMGIIYPGGSDTIYSPSFQGQVTISADKSISTAYLQWSSLKASDTAMYYCARVHIIQPPSAWSYNAMDVWGQGTLVTVSS VL: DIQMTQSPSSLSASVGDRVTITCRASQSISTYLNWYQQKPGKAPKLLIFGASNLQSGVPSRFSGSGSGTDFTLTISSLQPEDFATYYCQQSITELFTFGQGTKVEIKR    4240
3) MOR13762 (antibody, human IgG1, kappa, V domains shown, tested as IgG) VH: QVQLVQSGAEVKKPGESLKISCKGSGYSFTNTWVAWVRQMPGKGLEWMGIIYPGQSDTIYSPSFQGQVTISADKSISTAYLQWSSLKASDTAMYYCARVHIIQPPSAWSYNAMDVWGQGTLVTVSS VL: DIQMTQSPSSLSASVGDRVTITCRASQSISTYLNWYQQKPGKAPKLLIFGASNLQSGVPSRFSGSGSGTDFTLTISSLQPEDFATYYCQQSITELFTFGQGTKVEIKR    271

Which BT474 pHER3 IC50 reading was recorded for the binder MOR13756 (antibody, human IgG1, kappa, V domains shown, tested as IgG) VH: QVQLVQSGAEVKKPGESLKISCKGSGYSFTLTWVAWVRQMPGKGLEWMGIIYPGQSDTIYSPSFQGQVTISADKSISTAYLQWSSLKASDTAMYYCARVHIIQPPSAWSYNAMDVWGQGTLVTVSS VL: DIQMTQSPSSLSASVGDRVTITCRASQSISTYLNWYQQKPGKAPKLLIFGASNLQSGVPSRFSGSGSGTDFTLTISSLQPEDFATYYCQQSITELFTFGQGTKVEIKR ?
322

I have this binder here, MOR13759 (antibody, human IgG1, kappa, V domains shown, tested as IgG) VH: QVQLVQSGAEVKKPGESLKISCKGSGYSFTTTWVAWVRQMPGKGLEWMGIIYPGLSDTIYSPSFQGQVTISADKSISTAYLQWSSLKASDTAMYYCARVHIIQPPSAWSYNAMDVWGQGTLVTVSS VL: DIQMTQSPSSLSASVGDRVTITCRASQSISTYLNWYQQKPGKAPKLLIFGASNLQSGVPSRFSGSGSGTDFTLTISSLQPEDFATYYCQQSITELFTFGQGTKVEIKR , and I need its recorded BT474 pHER3 IC50.
431

Requested read-out: BT474 pHER3 IC50. Entry: MOR12616 (antibody, human IgG1, kappa, V domains shown, tested as IgG) VH: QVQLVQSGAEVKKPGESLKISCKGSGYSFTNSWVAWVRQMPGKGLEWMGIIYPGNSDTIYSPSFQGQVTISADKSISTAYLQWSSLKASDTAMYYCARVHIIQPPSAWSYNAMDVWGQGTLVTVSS VL: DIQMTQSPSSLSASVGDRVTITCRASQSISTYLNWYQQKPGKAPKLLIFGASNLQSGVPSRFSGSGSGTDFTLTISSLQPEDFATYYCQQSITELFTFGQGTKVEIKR
436
